# Tgt: human placenta GST (hGST) (Homo sapiens)
# Construct: human placenta GST (hGST); purchased Sigma-Aldrich; host or cells: human placenta
# Sequence (P09211 2-210 limits assumed): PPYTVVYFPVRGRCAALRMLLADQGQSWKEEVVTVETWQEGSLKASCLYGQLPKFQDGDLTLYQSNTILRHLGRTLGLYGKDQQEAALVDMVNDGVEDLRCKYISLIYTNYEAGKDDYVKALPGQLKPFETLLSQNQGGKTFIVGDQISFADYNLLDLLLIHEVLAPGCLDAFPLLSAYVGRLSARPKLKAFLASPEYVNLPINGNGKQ
# Experiment: Glutathione S-transferase inhibition assay (Habig method), hGST
# Assay type: biochemical
# Test Conditions: mean ± SEM of three independent measurements; / = No activity; read-out: Enzyme Inhibition hGST IC50
Value Kind: IC50

{"columns": ["Compound", "Value Kind", "Endpoint Value"],
 "data": [
  ["Cc1ccc(C(C)C)cc1.FC(F)(F)C1=[O+][Ru-]([P+]23CN4CN(CN(C4)C2)C3)[O]C(c2ccccc2Br)=C1.F[P-](F)(F)(F)(F)F [Complex 7, [RuCym(L2)pta]PF6]", "IC50", "> 100 µM"],
  ["O=C(CC(=O)C(F)(F)F)c1ccccc1Br [Complex L2, reference compound]", "IC50", "> 100 µM"],
  ["CN(C)C(=O)Oc1cccc([N+](C)(C)C)c1 [Neostigmine methylsulphate, reference compound]", "IC50", "> 100 µM"],
  ["O=[C]=[Ru-2]12(=[C]=O)([O][n+]3ccccc3[S]1)[O][n+]1ccccc1[S]2 [Complex 8, [Ru(L1)2(CO)2]]", "IC50", "16.6 µM"],
  ["CCCCCCCCCCCCCCCCCC(=O)CC(=O)c1ccccc1 [Complex L3, 1-phenylicosane-1,3-dione, reference compound]", "IC50", "> 100 µM"]
]}
